Origin of the recorded values: paper PMC8781960

tested on: T47-D (hormone-dependent breast cancer); experiment: In vitro cytotoxicity (MTT); details: at 50 µg/mL; inactive (IC50 ≥ 50 µg/mL)
Marks after values point to notes of the source that are not given here.

{"compound": "Cc1cc(C=O)cc(C)c1Oc1cc(Nc2ccc(C#N)cn2)nc2ccccc12 [Compound 6b]", "%C percentage cytotoxicity T47-D": "%C = 38.0 ^c"}
{"compound": "Cc1cc(/C=C/C#N)cc(C)c1Oc1cc(Nc2ccc(C#N)cn2)nc2ccccc12 [Compound 10b-trans]", "%C percentage cytotoxicity T47-D": "%C = 0.0 ^c"}
{"compound": "Cc1cc(C=O)cc(C)c1Oc1cc(Nc2ccc(C#N)cc2)c2ccccc2n1 [Compound 8b]", "%C percentage cytotoxicity T47-D": "%C = 38.0 ^c"}
{"compound": "Cc1cc(/C=C/C#N)cc(C)c1Oc1cc(Nc2ccc(C#N)cc2)nc2ccccc12 [Compound 9b-trans]", "%C percentage cytotoxicity T47-D": "%C = 0.0 ^c"}
